experiment: compounds reducing YIC probe YFP/CFP ratio – biochemical, fluorescence FRET, counter-screen for RanGTP-importin-beta inhibitor project, dose response (AID 435026); details: Purified YIC probe, intramolecular FRET ratio YFP/CFP
Screen size: about 1,000 compounds; about 410 (41%) were called active.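 The calls were made as follows: active = fitted half-maximal inhibitory concentration no more than tenfold above the top dose tested; inconclusive = flat fit with 30 to 70% activity, or poor fit; inactive = half-maximal concentration beyond tenfold above the top dose.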 The set was probably picked from earlier hits. These entries were drawn from the full list.
Classes used: active, inactive

compound: CCN1C(=O)/C(=C2/Sc3ccccc3N2CCCS(=O)(=O)O)SC1=S
category_label: active

compound: O=C(NNc1c2ccccc2nc2ccccc12)c1cc2ccccc2cc1O
category_label: inactive

compound: CCOc1ccc(N=Cc2c(O)n(-c3cccc(C)n3)c(=O)c3ccccc23)cc1
category_label: active

compound: COc1ccc(C(=O)C[n+]2ccc(N)c(C)c2C)cc1
category_label: inactive

compound: COc1cccc(C(=O)c2cc3ccc(O)cc3oc2=O)c1
category_label: active

compound: COc1ccc(CCn2c(=N)c(C(=O)NCc3ccco3)cc3c(=O)n4cccc(C)c4nc32)cc1
category_label: active

compound: Cc1nc2ccccc2c2oc(C(=O)NCCCN3CCC(C)CC3)cc12
category_label: inactive

compound: N#Cc1c(N)n(CCOC(=O)c2ccc(Cl)cc2)c2nc3ccccc3nc12
category_label: active

compound: CC(=O)c1cc(C#N)c(N2CC(C)OC(C)C2)nc1C (stereo not given)
category_label: inactive

compound: CC(=O)c1ccc(-c2ccc(Cn3c(C)nc4cc(N)c(C)nc43)cc2)cc1
category_label: inactive

compound: OCCNCc1cccc(OCc2ccccc2Cl)c1
category_label: inactive

compound: CC1(C)CC(=O)NC=C(c2ccccc2)C1
category_label: inactive

compound: CCN(CC(=O)Nc1cccc(S(=O)(=O)N2CCCCC2)c1)Cc1ccccc1
category_label: inactive

compound: O=c1cc(CN2CCN(S(=O)(=O)/C=C/c3ccccc3)CC2)c2ccc(O)cc2o1
category_label: active

compound: COC(=O)c1cc2c(ccn2C)n1C
category_label: inactive

----------
assay: compounds reducing YIC probe YFP/CFP ratio – biochemical, fluorescence FRET, counter-screen for RanGTP-importin-beta inhibitor project, dose response (AID 435026); conditions: Purified YIC probe, intramolecular FRET ratio YFP/CFP
Out of some 1,000 compounds screened, about 410 (41%) were called active.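 The calls were made as follows: active = fitted half-maximal inhibitory concentration no more than tenfold above the top dose tested; inconclusive = flat fit with 30 to 70% activity, or poor fit; inactive = half-maximal concentration beyond tenfold above the top dose.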 The set was probably picked from earlier hits. A selection follows.
Classes used: Yes (active), No (inactive)

molecule: CCN(CCO)C(=S)Nc1cc(C(=O)OC)ccc1C(=O)OC
category_label: No
//
molecule: Oc1c(CN2CCN(c3ccc(F)cc3)CC2)cc(Cl)c2cccnc12
category_label: No
//
molecule: Cc1ccc(N2CCN(c3ccc(C)cc3)C2c2ccccn2)cc1
category_label: No
//
molecule: Cc1ccc(NC(=S)NCCN2CCOCC2)cc1
category_label: No
//
molecule: N#C/C(=C\c1ccc(N2CCOCC2)o1)C(=O)N1CCOCC1
category_label: Yes
//
molecule: O=C(Nc1ccccc1-c1ccccc1)c1cccs1
category_label: No
//
molecule: CC(OC(=O)CNC(=O)c1cccc(F)c1)C(=O)NC1CCCCC1C (configuration not stated)
category_label: No
//
molecule: COc1ccc(-n2cnc3cc(NCc4ccco4)ccc32)cc1
category_label: No
//
molecule: Cc1cc(O)ccc1NC1=CC(=O)CC(C)(C)C1
category_label: No
//
molecule: CCN(CC)c1nc(-c2ccccc2)cc(C(F)(F)F)c1C#N
category_label: Yes
//
molecule: Cc1ccc(-n2c(=O)c(C#N)cc3c(=O)n4ccccc4nc32)cc1C
category_label: Yes
//
molecule: N#C/C(=C/c1ccc(N2CCOCC2)o1)C(=O)N1CCOCC1
category_label: Yes

Reference source for all entries: PubChem BioAssay AID435026
